# target-entity: human IL-13 (source not stated for the assay) (human, UniProt P35225 35-146, limits assumed)
# Sequence (P35225 35-146 limits assumed): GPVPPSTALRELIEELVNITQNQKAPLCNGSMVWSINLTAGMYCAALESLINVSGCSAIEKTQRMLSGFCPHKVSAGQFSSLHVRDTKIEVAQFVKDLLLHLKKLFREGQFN
# assay-text: cell-based or functional assay
quantity-measured: IC50, IL-13 induced eotaxin release, n = 3 (nM)
Expressed in nM, but write only the number.

binder: mAb 643 (antibody, V domains shown) VH: EVQLVESGGGLVKPGGSLRLSCAASGFTFSNAWMSWVRQAPGKGLEWVGRIRSEIDGGTTNYAAPVKGRFTISRDDSKNTLYLQMNSLRTEDTAVYYCATDQVGAYYGDYYGMDVWGQGTTVTVSS VL: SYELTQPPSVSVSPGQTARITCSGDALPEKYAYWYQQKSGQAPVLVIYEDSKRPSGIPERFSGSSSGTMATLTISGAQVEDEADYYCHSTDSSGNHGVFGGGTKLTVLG
experimental-value: 0.033

binder: mAb 731 (antibody, V domains shown, also called sc731) VH: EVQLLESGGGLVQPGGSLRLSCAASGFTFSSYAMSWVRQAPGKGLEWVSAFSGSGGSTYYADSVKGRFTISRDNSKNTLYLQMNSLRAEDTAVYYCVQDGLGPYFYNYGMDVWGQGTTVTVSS VL: SYELTQPPSVSVSPGQTASITCSGDKLGDKYACWFQQKPGQSPVLVIYHDSKRPSGIPERFSGSNSGDTATLTISGTQAMDEADYYCQAWDSSTYVFGTGTKVTVLG
experimental-value: 0.017

Now look at this one.
## Input So what does the record say about IC50, IL-13 induced eotaxin release, n = 3 for mAb 713 (antibody, V domains shown) VH: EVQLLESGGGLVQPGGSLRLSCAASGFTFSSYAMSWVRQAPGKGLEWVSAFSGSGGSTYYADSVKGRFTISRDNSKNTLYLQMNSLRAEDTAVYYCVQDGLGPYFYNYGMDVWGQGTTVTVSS VL: SYELTQPPSVSVSPGQTASITCSGDKLGDKYTCWFQQKPGQSPVLVIYHDSKRPSGIPERFSGSNSGDTATLTISGTQAMDEADYYCQAWDSSTYVFGTGTKVTVLG ?
## Output 0.019
